Would you kindly list SK-BR3 TGI for each of these molecules?
- Test system: SK-BR-3
- measurement.protocol: Inhibition of cells growth by colorimetric assay (SRB), SK-BR-3
- Type: cell-based
- condition.description: SK-BR3; SRB, 48 hours exposure

SK-BR-3 assay, molecule COc1cc2c(cc1OC(=O)Cc1cc(=O)oc3cc(N(C)C)ccc13)CCN[C@]21CS[C@@H]2c3c(OC(C)=O)c(C)c4c(c3[C@H](COC1=O)N1C2[C@H]2c3c(cc(C)c(OC)c3OC(=O)Cc3cc(=O)oc5cc(N(C)C)ccc35)C[C@@H]([C@@H]1O)N2C)OCO4 (stereo partly drawn) [Compound 78] , recorded SK-BR3 TGI = 1.70E-08

SK-BR-3 assay, molecule C=COC(=O)Oc1cc2c(cc1OC)[C@@]1(CS[C@@H]3c4c(OC(C)=O)c(C)c5c(c4[C@H](COC1=O)N1C3[C@H]3c4c(cc(C)c(OC)c4O)C[C@@H]([C@@H]1O)N3C)OCO5)N(C(=O)OC=C)CC2 (stereo partly drawn) , recorded SK-BR3 TGI = 9.87E-08

SK-BR-3 assay, molecule COc1cc2c(cc1O)CCN(C)[C@]21CS[C@@H]2c3c(OC(C)=O)c(C)c4c(c3[C@H](COC1=O)N1C2[C@H]2c3c(cc(C)c(OC)c3O)C[C@@H]([C@@H]1O)N2C)OCO4 (stereo partly drawn) , recorded SK-BR3 TGI = 1.96E-09
